These entries and their values trace back to patent EP0745595A1.

Tested on: AMBROSIA ARTEMISIIFOLIA, L.
Assay: Postemergence herbicidal evaluation, AMBEL (Ragweed, Common)
Type: in vivo
Conditions: 0.031 kg/ha
Assay Readout: Herbicidal effect rating, AMBEL
Lab note: write the figure by itself, no unit.

# query: Herbicidal effect rating, AMBEL of entry COC(=O)Cn1c(=O)n(C)c(=O)n(-c2cc(Oc3c(F)cc(C(F)(F)F)cc3Cl)ccc2F)c1=O [Compound 4]
7.2

Herbicidal effect rating, AMBEL lookup needed for Cn1c(=O)[nH]c(=O)n(-c2cc(Oc3c(F)cc(C(F)(F)F)cc3Cl)ccc2F)c1=O [C, reference compound] , thanks.
1.0

Name the recorded Herbicidal effect rating, AMBEL for Cn1c(=O)[nH]c(=O)n(-c2cc(Oc3ccc(C(F)(F)F)cc3Cl)ccc2[N+](=O)[O-])c1=O [B, reference compound] .
3.0

Recorded Herbicidal effect rating, AMBEL of COC(=O)Cn1c(=O)n(C)c(=O)n(-c2cc(Oc3ccc(C(F)(F)F)cc3Cl)ccc2[N+](=O)[O-])c1=O [Compound 3] , please.
8.3

* * *

Tested on: CHENOPODIUM ALBUM, L.
Assay: Postemergence herbicidal evaluation, CHEAL (Lambsquarters, Common)
Assay type: in vivo
Details: 0.063 kg/ha
Assay Readout: Herbicidal effect rating, CHEAL

Could you tell me which Herbicidal effect rating, CHEAL is on file for COC(=O)Cn1c(=O)n(C)c(=O)n(-c2cc(Oc3c(F)cc(C(F)(F)F)cc3Cl)ccc2Br)c1=O ?
8.8

Entry under review: COC(=O)Cn1c(=O)n(C)c(=O)n(-c2cc(Oc3c(F)cc(C(F)(F)F)cc3Cl)ccc2F)c1=O . Reported Herbicidal effect rating, CHEAL?
8.8

Look up Herbicidal effect rating, CHEAL: COC(=O)Cn1c(=O)n(C)c(=O)n(-c2cc(Oc3ccc(C(F)(F)F)cc3Cl)ccc2[N+](=O)[O-])c1=O
6.0

* * *

Tested on: AMBROSIA ARTEMISIIFOLIA, L.
Assay: Postemergence herbicidal evaluation, AMBEL (Ragweed, Common)
Format: in vivo
Conditions: 0.063 kg/ha
Assay Readout: Herbicidal effect rating, AMBEL
Please respond with just the number, no unit label.

Solved entries (count: 5):
{"Molecule": "Cn1c(=O)[nH]c(=O)n(-c2cc(Oc3c(F)cc(C(F)(F)F)cc3Cl)ccc2Br)c1=O [A, reference compound]", "Herbicidal effect rating, AMBEL": 1.0}
{"Molecule": "Cn1c(=O)[nH]c(=O)n(-c2cc(Oc3ccc(C(F)(F)F)cc3Cl)ccc2[N+](=O)[O-])c1=O [B, reference compound]", "Herbicidal effect rating, AMBEL": 4.5}
{"Molecule": "COC(=O)Cn1c(=O)n(C)c(=O)n(-c2cc(Oc3ccc(C(F)(F)F)cc3Cl)ccc2[N+](=O)[O-])c1=O [Compound 3]", "Herbicidal effect rating, AMBEL": 8.6}
{"Molecule": "COC(=O)Cn1c(=O)n(C)c(=O)n(-c2cc(Oc3c(F)cc(C(F)(F)F)cc3Cl)ccc2F)c1=O [Compound 4]", "Herbicidal effect rating, AMBEL": 8.0}
{"Molecule": "Cn1c(=O)[nH]c(=O)n(-c2cc(Oc3c(F)cc(C(F)(F)F)cc3Cl)ccc2F)c1=O [C, reference compound]", "Herbicidal effect rating, AMBEL": 3.0}

Next:
Which Herbicidal effect rating, AMBEL value is on record for COC(=O)Cn1c(=O)n(C)c(=O)n(-c2cc(Oc3c(F)cc(C(F)(F)F)cc3Cl)ccc2Br)c1=O [Compound 2] ?
8.0
